test system: K4 kissing-loop RNA reporter; experiment: apparent KD of K4 kissing-loop reporter; higher = weaker reporter binding; details: Eterna round: R107; input ligand: theophylline 20 uM;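 further: bound reporter read as fluorescence of individual clusters on recovered sequencing chips by microscopy, with normalized cluster intensities fitted with a binding model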
apparent KD of K4 kissing-loop reporter vs 100 nM: at or above is t, below is f.

biopolymer.sequence	group
GCCAGAGCGCGAAGGAGCGCCGUGACAGGUUGCUGCCGUGGGCAGUGAUGUUGCUCAAUCUGGCAGGUAGGUCGCGUGCUCUGGC	t
AGACUACUGACAGGAUAUAACAUCCUGGUCGUAUACCGAAAGGUAUACGAUUUCCUUCUAGUGAUGUUAGAAGGGUCGGUAGUCA [Omei KL FMN B Exc B v14]	f
UGUACCGAGUCAGGAUAUCAUAAUAAAUGCAGUGAUGUUGCAAUAACCAGUACAAAAGUGCUGGAUUGAGAAGGGACUUGGUACU [FmnBS 5 #SwitchBubble #StaticStem]	t
CACUCGGUAUCAGAUACCAGACUAUCGAUACCGAGUGUAUCGGGUAGUGAUGUUACCAUAGUCCCUUGGCAGCUGAUAUUGCAUA [Theo B SS t9b]	f
AUUUUUUUAUCAGGAUAUUAGUGUUGGUUUGUUUUGUUAGUGAUGUUGAUAUUUGUUUUAUGUAUUUAAGAAGGGAUUGUGAUGU [huupullin]	t
AAAAUUAAGGCCGAAUUAACUUCUUGCAUACGAGGACCGGUACGGCCGCCACUCGAGUCAAGUGAUGUUUGACAAUCUAUUAUUA [JR_ExcTryptoA_Sub010]	t

The measured values listed here are drawn from the supplement of paper PMC9170038.
